tested on: Setaria viridis (SETVI); assay: Biological Example 4B (not-previously-formulated compounds) post-emergence herbicidal activity on grassy weeds; assay type: in vivo; settings: 30 g/ha, cloquintocet-mexyl 50 g/ha, 14 DAA, technical compound in IF50 + Adigor, mean of two
Reported SETVI % phytotoxicity values for the following molecules.
Dear colleague, please return just the value in %, with no unit written.

Worked examples follow.
INSERT INTO measurements (molecule, readout_unit, reported_result) VALUES
  ('CC#Cc1cc(C)c(C2C(=O)CC(Cc3ccn(C)n3)C2=O)c(C)c1 (centres unmarked)', '%', 100),
  ('CC#Cc1cc(C)c(C2=C(O)CC(Cc3ccc(C#N)cn3)C2=O)c(C)c1 (centres unmarked)', '%', 99),
  ('CC#Cc1cc(C)c(C2=C(O)CC(Cc3ccc(F)cn3)C2=O)c(C)c1 (centres unmarked)', '%', 89),
  ('CC#Cc1cc(C)c(C2=C(O)CC(Cc3ccc(C)cn3)C2=O)c(C)c1 (centres unmarked)', '%', 55);

Now for a further molecule.
The molecule CC#Cc1cc(C)c(C2C(=O)CC(Cc3ccccn3)C2=O)c(CC)c1 (centres unmarked) showed SETVI % phytotoxicity equal to 100

---

Reported Spring Wheat “Teal” phytotoxicity (%) values for the following molecules.
System: Spring Wheat “Teal”
Assay: Biological Example 4B post-emergence phytotoxicity on cereal crops
Format: in vivo
Conditions: 60 g/ha, cloquintocet-mexyl 0 g/ha, 14 DAA, technical compound in IF50 + Adigor, mean of two
Method: Seeds of a variety of test species are sown in standard soil in pots. After cultivation for 14 days under controlled conditions in a glasshouse (at 22/16°C., day/night; 16 hours light; 65% humidity), the plants are sprayed with an aqueous spray solution derived from the formulation of the technical active ingredient dissolved in acetone plus IF50 containing […] at a 1:20 ratio of (technical active ingredient:IF50). […] After 14 days the test is evaluated (100%=total damage to plant; 0%=no damage to plant). […]
Dear colleague, please return just the value in %, with no unit written.

INSERT INTO results (molecule, readout_unit, reported_result) VALUES
  ('CC#Cc1cc(C)c(C2=C(O)CC(Cc3ccc(C#N)cn3)C2=O)c(C)c1 (centres unmarked) [Compound A-14]', '%', 83),
  ('CC#Cc1cc(C)c(C2C(=O)CC(Cc3ccccn3)C2=O)c(CC)c1 (centres unmarked) [Compound A-26]', '%', 100),
  ('CC#Cc1cc(C)c(C2C(=O)CC(Cc3ccn(C)n3)C2=O)c(C)c1 (centres unmarked) [Compound A-19]', '%', 90),
  ('CC#Cc1cc(C)c(C2=C(O)CC(Cc3ccc(C)cn3)C2=O)c(C)c1 (centres unmarked) [Compound A-8]', '%', 73);

Now for a further molecule.
The molecule CC#Cc1cc(C)c(C2=C(O)CC(Cc3ccc(F)cn3)C2=O)c(C)c1 (centres unmarked) [Compound A-11] showed Spring Wheat “Teal” phytotoxicity (%) equal to 38

---

system: Setaria viridis (SETVI); assay: Biological Example 4B (not-previously-formulated compounds) post-emergence herbicidal activity on grassy weeds; format: in vivo; conditions: 60 g/ha, cloquintocet-mexyl 0 g/ha, 14 DAA, technical compound in IF50 + Adigor, mean of two
Reported SETVI % phytotoxicity values for the following compounds.
Dear colleague, please return just the value in %, with no unit written.

The compound CC#Cc1cc(C)c(C2C(=O)CC(Cc3ccn(C)n3)C2=O)c(C)c1 (centres unmarked) showed SETVI % phytotoxicity equal to 100

The compound CC#Cc1cc(C)c(C2=C(O)CC(Cc3ccc(C)cn3)C2=O)c(C)c1 (centres unmarked) showed SETVI % phytotoxicity equal to 75

The compound CC#Cc1cc(C)c(C2C(=O)CC(Cc3ccccn3)C2=O)c(CC)c1 (centres unmarked) showed SETVI % phytotoxicity equal to 100

The compound CC#Cc1cc(C)c(C2=C(O)CC(Cc3ccc(F)cn3)C2=O)c(C)c1 (centres unmarked) showed SETVI % phytotoxicity equal to 98

The compound CC#Cc1cc(C)c(C2=C(O)CC(Cc3ccc(C#N)cn3)C2=O)c(C)c1 (centres unmarked) showed SETVI % phytotoxicity equal to 100

---

tested on: Triticum aestivum, wheat (TRZAW); assay: Biological Example 3 glasshouse screen, post-emergence, phytotoxicity on wheat; assay type: in vivo; details: 360 h, application rate 60 g/ha, 15 DAA, no safener, read-out: TRZAW percentage phytotoxicity
PROPERTY: pest or weed control at 60 g/ha
The reply must contain the numeric value and, after it, the unit.

Worked examples follow.
INSERT INTO assay_data (compound, property, reported_result) VALUES
  ('CC#Cc1cc(C)c(C2=C(O)CC(Cc3cccnc3)C2=O)c(C)c1 (stereo not drawn) [Compound A-10]', 'pest or weed control at 60 g/ha', '50%'),
  ('CC#Cc1cc(C)c(C2=C(O)CC(Cc3ccc(C#N)cn3)C2=O)c(C)c1 (stereo not drawn) [Compound A-14]', 'pest or weed control at 60 g/ha', '40%');

The compound CC#Cc1cc(C)c(C2=C(O)CC(Cc3ccc(F)cn3)C2=O)c(C)c1 (stereo not drawn) [Compound A-11] showed pest or weed control at 60 g/ha equal to 50%

The compound CC#Cc1cc(C)c(C2=C(O)CC(Cc3cccnc3C#CC)C2=O)c(C)c1 (stereo not drawn) [Compound A-15] showed pest or weed control at 60 g/ha equal to 30%

The compound CC#Cc1cc(C)c(C2=C(O)CC(Cc3cccc(F)n3)C2=O)c(C)c1 (stereo not drawn) [Compound A-7] showed pest or weed control at 60 g/ha equal to 50%

The compound CC#Cc1cc(C)c(C2=C(O)CC(Cc3cccc(C)n3)C2=O)c(C)c1 (stereo not drawn) [Compound A-9] showed pest or weed control at 60 g/ha equal to 30%

---

tested on: Echinochloa crus-galli (ECHCG); test: Biological Example 1 glasshouse screen, pre-emergence herbicidal activity; format: in vivo; details: 312 h, application rate 250 g/ha, evaluated after 13 days, read-out: ECHCG percentage phytotoxicity
Reported pest or weed control at 250 g/ha values for the following compounds.
Dear colleague, please return just the value in %, with no unit written.

INSERT INTO assay_data (compound, property, readout_unit, reported_result) VALUES
  ('Cc1cc(C#CCl)cc(C)c1C1C(=O)C2C(C1=O)[C@H]1CC[C@@H]2O1 (some centres unmarked)', 'pest or weed control at 250 g/ha', '%', 100),
  ('CC#Cc1cc(C)c(C2=C(O)CC(Cc3ccc(C#N)cn3)C2=O)c(C)c1 (centres unmarked)', 'pest or weed control at 250 g/ha', '%', 90),
  ('CC#Cc1cc(C)c(C2C(=O)CC(Cc3ccccc3C#N)C2=O)c(C)c1 (centres unmarked)', 'pest or weed control at 250 g/ha', '%', 80),
  ('CC#Cc1cc(C)c(C2C(=O)CC(Cc3ccc(C#N)cn3)C2=O)c(CC)c1 (centres unmarked)', 'pest or weed control at 250 g/ha', '%', 100),
  ('C#CCC1CC(=O)C(c2c(C)cc(C#CC)cc2C)C1=O (centres unmarked)', 'pest or weed control at 250 g/ha', '%', 100),
  ('CC#CCC1CC(=O)C(c2c(C)cc(C#CC)cc2C)C1=O (centres unmarked)', 'pest or weed control at 250 g/ha', '%', 100);

// returns pest or weed control at 250 g/ha for CC#Cc1cc(C)c(C2C(=O)CC(CC#CCl)C2=O)c(C)c1 (centres unmarked) with Echinochloa crus-galli (ECHCG); value = 100

// returns pest or weed control at 250 g/ha for CC#Cc1cc(C)c(C2=C(O)CC(CC3CCOCC3)C2=O)c(C)c1 (centres unmarked) with Echinochloa crus-galli (ECHCG); value = 100
